# TESTED ON: SARS-CoV-2 NTD (SARS-CoV-2, UniProt P0DTC2 14-305)
# PROTOCOL TEXT: ELISA
METRIC NAME: binding result

BINDER	METRIC NAME	OBSERVED MEASUREMENT
A19-1.1 (antibody, V domains shown) VH: QVQLVESGGGVVQPGRSLRLSCAASGFTFTNYAMHWVRQAPGKGLEWVAVISNDGSDKYYADSVKGRFTISRDNSKSTVYLQMSSLRPEDTAVYFCARDPPQVHWSLDYWGQGTLVTVSS VL: QSALTQPPSASGSPGQSVTISCTGTSSDVGDYNYVSWYQHHPGKAPKLIIYDVSKRPSGVPDRFSGSKSGDTASLTVSGLQAEDEADYYCSSYAGNNNAVFGTGTKVTVL	binding result	no binding
A23-113.1 (antibody, V domains shown) VH: QVHLEESGGAVVQPGRSLRLSCAASGFTFSSYGMHWVRQAPGKGLEWVAVISHDGSYKYYADSVKGRFTISRDNSKDTLYLQTNSLRAEDTAMYYCAKSYGYWMAYFDYWGQGTLVTVSS VL: DIQMTQSPSSLSASVGDRVTITCRASQDISNYLAWYQQKPGKVPKLLIYAASTLQSGVPSRFSGSGSGTDFTLTISSLQPEDVATYYCQKYNSPWHTFGGGTKVEIK	binding result	no binding
A20-9.1 (antibody, V domains shown) VH: QVQLVESGGGVVQPGRSLRLSCAASGFTFSSYGMHWVRQAPGKGLEWVAFISYDGSNKYYADSVKGRFTISRDNSKNTLYLQMNSLRAEDTAVYYCAKDYWSVAAGTSWFDPWGQGTLVSVSS VL: SYELTQPPSVSVSPGQTARITCSGDALPKQYAYWYQQKPGQAPVVVIYKDSERPSGIPERFSGSSSGTTVTLTISGVQAEDEADYYCQSADSSGTWVFGGGTKLTVL	binding result	no binding
